Assay: Pharmacokinetic study in mice (K–V i.v./p.o., SDD-V p.o.)
Format: in vivo, mice (female CD-1)
Settings: female, CD-1, mouse, plasma, iv, 0.5 mg/kg in K–V, read-out: in vivo total clearance (converted)
property-label: clearance (mL/min/kg)
Hi! Could you send only the number? It should be in mL/min/kg, unit omitted.

Would you kindly share the measured clearance for Cc1cc(Nc2ncc(Cl)c(Nc3ccccc3S(=O)(=O)C(C)C)n2)c(OC(C)C)cc1C1CCN(CC(=O)NCCNc2cccc3c2C(=O)N(C2CCC(=O)NC2=O)C3=O)CC1 (stereo not shown) [MS4078] ?
20.3

###

Assay: Solubility of MS4078 in buffer and cFaSSIF types (24 h, 37°C)
Assay type: physicochemical
Conditions: fassgf or other biorelevant, thermodynamic from solid, cFaSSIF5x pH 5, 37°C, read-out: Solubility in 5x concentrated cFaSSIF
property-label: solubility at 24 h

Which solubility at 24 h value belongs to Cc1cc(Nc2ncc(Cl)c(Nc3ccccc3S(=O)(=O)C(C)C)n2)c(OC(C)C)cc1C1CCN(CC(=O)NCCNc2cccc3c2C(=O)N(C2CCC(=O)NC2=O)C3=O)CC1 (stereo not shown) ?
~220 µg/mL

###

Assay: Solubility of MS4078 in buffer and cFaSSIF types (24 h, 37°C)
Type: physicochemical
Details: fassif, thermodynamic from solid, cFaSSIF1x pH 5, 37°C, read-out: Solubility S(cFaSSIF1x)
property-label: solubility at 24 h (µg/mL)
Enter your answer as a number in µg/mL; do not include the unit.

Reported solubility at 24 h for Cc1cc(Nc2ncc(Cl)c(Nc3ccccc3S(=O)(=O)C(C)C)n2)c(OC(C)C)cc1C1CCN(CC(=O)NCCNc2cccc3c2C(=O)N(C2CCC(=O)NC2=O)C3=O)CC1 (stereo not shown) : what is it?
78

###

Test: Solubility of MS4078 in buffer and cFaSSIF types (24 h, 37°C)
Format: physicochemical
Conditions: aqueous buffer, thermodynamic from solid, citrate-phosphate buffer pH 5, 37°C, read-out: Solubility
property-label: solubility at 24 h

What does the data say about its solubility at 24 h? Entry: Cc1cc(Nc2ncc(Cl)c(Nc3ccccc3S(=O)(=O)C(C)C)n2)c(OC(C)C)cc1C1CCN(CC(=O)NCCNc2cccc3c2C(=O)N(C2CCC(=O)NC2=O)C3=O)CC1 (stereo not shown) [MS4078]
~2 µg/mL

###

Test: Pharmacokinetic study in mice (K–V i.v./p.o., SDD-V p.o.)
Format: in vivo, mice (female CD-1)
Settings: female, CD-1, mouse, plasma, iv, 0.5 mg/kg in K–V, read-out: volume of distribution (Vss)
property-label: Vd (L/kg)
Field format: number, assumed L/kg, no unit text.

Give the measured Vd of Cc1cc(Nc2ncc(Cl)c(Nc3ccccc3S(=O)(=O)C(C)C)n2)c(OC(C)C)cc1C1CCN(CC(=O)NCCNc2cccc3c2C(=O)N(C2CCC(=O)NC2=O)C3=O)CC1 (stereo not shown) .
1.05
